Would you kindly list inhibition at 10 µM for each of these compounds?
# SUBJECT OF TEST: RET (Homo sapiens, UniProt P07949)
# Sequence (P07949 29-1114): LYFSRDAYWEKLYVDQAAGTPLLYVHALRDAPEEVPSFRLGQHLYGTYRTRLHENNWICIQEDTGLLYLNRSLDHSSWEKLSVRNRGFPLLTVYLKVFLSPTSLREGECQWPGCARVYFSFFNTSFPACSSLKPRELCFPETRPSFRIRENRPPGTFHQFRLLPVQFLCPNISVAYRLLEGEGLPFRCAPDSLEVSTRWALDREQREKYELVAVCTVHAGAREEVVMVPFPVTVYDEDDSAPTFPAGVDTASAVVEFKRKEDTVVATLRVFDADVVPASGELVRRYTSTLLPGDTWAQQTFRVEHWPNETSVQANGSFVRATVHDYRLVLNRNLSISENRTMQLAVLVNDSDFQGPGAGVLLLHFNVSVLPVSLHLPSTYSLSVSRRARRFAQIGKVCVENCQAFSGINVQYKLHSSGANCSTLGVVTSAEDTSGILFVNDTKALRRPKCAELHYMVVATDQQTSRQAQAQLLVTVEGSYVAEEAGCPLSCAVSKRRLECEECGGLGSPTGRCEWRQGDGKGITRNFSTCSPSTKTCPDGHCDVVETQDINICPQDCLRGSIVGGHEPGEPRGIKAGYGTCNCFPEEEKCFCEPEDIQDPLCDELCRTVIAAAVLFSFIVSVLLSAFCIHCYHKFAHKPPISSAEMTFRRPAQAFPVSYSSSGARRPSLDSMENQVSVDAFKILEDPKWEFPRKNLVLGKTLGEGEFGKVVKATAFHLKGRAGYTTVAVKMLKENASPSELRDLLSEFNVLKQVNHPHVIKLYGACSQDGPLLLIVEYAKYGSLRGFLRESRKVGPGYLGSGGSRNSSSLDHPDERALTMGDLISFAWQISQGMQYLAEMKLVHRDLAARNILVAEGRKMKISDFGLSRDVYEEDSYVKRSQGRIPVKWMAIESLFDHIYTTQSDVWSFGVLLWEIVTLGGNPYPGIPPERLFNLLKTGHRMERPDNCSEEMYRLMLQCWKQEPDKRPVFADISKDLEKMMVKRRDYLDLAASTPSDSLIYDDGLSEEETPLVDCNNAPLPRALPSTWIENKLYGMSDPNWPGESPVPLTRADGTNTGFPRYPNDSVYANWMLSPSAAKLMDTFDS
# METHOD SUMMARY: Z'-LYTE SelectScreen biochemical kinase assay RET
# CONDITION PARAMETERS: read-out: % Inhibition mean RET
Dear colleague, please send the value followed by its unit.

I would be grateful if you could share the reported inhibition at 10 µM for Cc1cc(F)ccc1-c1cccn2nc(NC3CCc4c(cnn4C(C)C)C3)nc12 (centres unmarked) .
20%

Try this compound too: CCCCCn1ncc2c1CCC(Nc1nc3c(-c4ccc(F)cc4C)cccn3n1)C2 (centres unmarked)
23%

Try this compound too: CCn1nnc2c1CCC(Nc1nc3c(-c4ccc(F)cc4C)cccn3n1)C2 (centres unmarked)
2%

Try this compound too: `CCn1ncc2c1CC[C@H](Nc1nc3c(-c4ccc(F)c(Cl)c4)cccn3n1)C2`
23%

Try this compound too: `CCn1ncc2c1CC[C@@H](Nc1nc3c(-c4ccc(F)c(Cl)c4)cccn3n1)C2`
20%

Try this compound too: CCn1ncc2c1CCC(Nc1nc3c(-c4cccnc4OC)cccn3n1)C2 (centres unmarked)
16%

Try this compound too: CCn1ncc2c1C(C)CC(Nc1nc3c(-c4cc(F)c(F)c(F)c4)cccn3n1)C2 (centres unmarked)
22%

Try this compound too: CCCn1ncc2c1CCC(Nc1nc3c(-c4ccc(F)cc4C)cccn3n1)C2 (centres unmarked)
26%

Try this compound too: CCn1ncc2c1CCC(Nc1nc3c(-c4cncc(Cl)c4)cccn3n1)C2 (centres unmarked)
62%

Try this compound too: Cc1cc(F)ccc1-c1cccn2nc(NC3CCc4c(cnn4C)C3)nc12 (centres unmarked)
18%

Try this compound too: CCn1ncc2c1CCC(Nc1nc3c(-c4cnccc4OC)cccn3n1)C2 (centres unmarked)
28%

Try this compound too: CCn1ncc2c1CCC(Nc1nc3c(-c4cncc(OC)c4)cccn3n1)C2 (centres unmarked)
32%

Try this compound too: CCc1nn(C)c2c1CCC(Nc1nc3c(-c4ccc(F)cc4C)cccn3n1)C2 (centres unmarked)
15%

Try this compound too: Cc1cc(F)ccc1-c1cccn2nc(NC3CCc4c(cnn4CC(C)C)C3)nc12 (centres unmarked)
30%

Try this compound too: CCn1nc(Cl)c2c1CCC(Nc1nc3c(-c4ccc(F)cc4C)cccn3n1)C2 (centres unmarked)
18%

Try this compound too: Cc1cc(F)ccc1-c1cccn2nc(NC3CCc4cnn(C)c4C3)nc12 (centres unmarked)
18%

Try this compound too: CCn1ncc2c1CCC(Nc1nc3c(-c4ccc(OC)nc4)cccn3n1)C2 (centres unmarked)
30%

Try this compound too: CCn1ncc2c1CCC(Nc1nc3c(-c4ccccc4C)cccn3n1)C2 (centres unmarked)
27%

Try this compound too: CCn1ncc2c1CCC(Nc1nc3c(-c4cccnc4)cccn3n1)C2 (centres unmarked)
20%

Try this compound too: CCn1ncc2c1CCC(Nc1nc3c(-c4ccc(F)cc4C)cccn3n1)C2 (centres unmarked)
29%

Try this compound too: CCn1ncc2c1CCC(Nc1nc3c(-c4cccc(Cl)c4)cccn3n1)C2 (centres unmarked)
29%

Try this compound too: CCn1ncc2c1CCC(Nc1nc3c(-c4ccc(C)nc4)cccn3n1)C2 (centres unmarked)
24%

Try this compound too: `CCn1ncc2c1CC[C@@H](Nc1nc3c(-c4ccc(F)cc4C)cccn3n1)C2`
23%

Try this compound too: CCn1ncc2c1CCC(Nc1nc3c(-c4ccc(F)cc4)cccn3n1)C2 (centres unmarked)
21%

Try this compound too: CCCCn1ncc2c1CCC(Nc1nc3c(-c4ccc(F)cc4C)cccn3n1)C2 (centres unmarked)
26%

Try this compound too: `Cc1cc(F)ccc1-c1cccn2nc(Nc3ccc4c(cnn4C)c3)nc12`
39%

----------
# SUBJECT OF TEST: MAP4K4 (HGK) (Homo sapiens)
# Sequence (O95819 whole entry): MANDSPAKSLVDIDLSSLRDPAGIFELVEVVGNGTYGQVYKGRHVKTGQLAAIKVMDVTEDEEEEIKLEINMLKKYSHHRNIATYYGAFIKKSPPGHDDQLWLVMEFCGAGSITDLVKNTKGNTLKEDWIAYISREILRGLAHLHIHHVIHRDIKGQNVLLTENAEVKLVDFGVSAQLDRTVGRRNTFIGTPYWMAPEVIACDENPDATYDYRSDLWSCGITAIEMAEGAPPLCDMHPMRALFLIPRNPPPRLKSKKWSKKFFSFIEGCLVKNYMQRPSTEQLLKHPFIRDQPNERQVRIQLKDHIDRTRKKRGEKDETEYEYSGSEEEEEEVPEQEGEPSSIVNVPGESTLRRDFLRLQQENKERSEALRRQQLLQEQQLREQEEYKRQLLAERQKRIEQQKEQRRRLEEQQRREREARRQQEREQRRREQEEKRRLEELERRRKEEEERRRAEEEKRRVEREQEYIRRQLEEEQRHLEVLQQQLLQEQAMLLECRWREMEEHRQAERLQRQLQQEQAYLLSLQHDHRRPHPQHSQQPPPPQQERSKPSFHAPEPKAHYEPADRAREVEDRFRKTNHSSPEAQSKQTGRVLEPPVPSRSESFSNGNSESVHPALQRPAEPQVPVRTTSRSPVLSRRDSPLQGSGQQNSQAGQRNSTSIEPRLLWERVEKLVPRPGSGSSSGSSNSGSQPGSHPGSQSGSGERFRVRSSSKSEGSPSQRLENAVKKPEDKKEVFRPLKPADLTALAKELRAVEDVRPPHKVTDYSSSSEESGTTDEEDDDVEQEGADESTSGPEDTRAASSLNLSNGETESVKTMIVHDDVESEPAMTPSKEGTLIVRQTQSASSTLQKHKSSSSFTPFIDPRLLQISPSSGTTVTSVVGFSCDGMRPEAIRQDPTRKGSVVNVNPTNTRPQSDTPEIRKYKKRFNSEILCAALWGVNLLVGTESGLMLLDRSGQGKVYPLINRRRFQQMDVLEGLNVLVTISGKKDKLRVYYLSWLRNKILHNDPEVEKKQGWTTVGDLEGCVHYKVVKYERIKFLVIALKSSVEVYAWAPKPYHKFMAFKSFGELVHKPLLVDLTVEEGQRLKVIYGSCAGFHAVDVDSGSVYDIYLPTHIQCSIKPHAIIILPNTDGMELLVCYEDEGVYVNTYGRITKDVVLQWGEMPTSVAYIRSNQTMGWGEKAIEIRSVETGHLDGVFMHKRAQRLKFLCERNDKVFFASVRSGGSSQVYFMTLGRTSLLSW
# METHOD SUMMARY: Z'-LYTE SelectScreen biochemical kinase assay MAP4K4 (HGK)
# CONDITION PARAMETERS: 10 μmolar compound concentration; ATP at Km app; read-out: MAP4K4 (HGK) inhibition
# Excerpt: Thermo Fisher Scientific SelectScreen™ Biochemical Kinase Profiling Service Z′-LYTE™ Screening Protocol and Assay Conditions Assay Theory The […] biochemical assay employs a fluorescence-based, coupled-enzyme format and is based on the differential sensitivity of phosphorylated and non-phosphorylated peptides to proteolytic cleavage. […] Both cleaved and uncleaved FRET-peptides contribute to the fluorescence signals and therefore to the Emission Ratio. […]
PROPERTY NAME: inhibition at 10 µM

I would be grateful if you could share the reported inhibition at 10 µM for CCn1nnc2c1CCC(Nc1nc3c(-c4ccc(F)cc4C)cccn3n1)C2 (stereo not drawn) .
< 40%

Try this compound too: CCn1ncc2c1C(C)CC(Nc1nc3c(-c4cc(F)c(F)c(F)c4)cccn3n1)C2 (stereo not drawn)
40 to 80%

Try this compound too: CCn1ncc2c1CCC(Nc1nc3c(-c4cnccc4OC)cccn3n1)C2 (stereo not drawn)
40 to 80%

----------
# SUBJECT OF TEST: RET (Homo sapiens, UniProt P07949)
# METHOD SUMMARY: Z'-LYTE SelectScreen biochemical kinase assay RET
# CONDITION PARAMETERS: 10 μmolar compound concentration; ATP at Km app; read-out: RET inhibition
Would you kindly list inhibition at 10 µM for each of these compounds?

I would be grateful if you could share the reported inhibition at 10 µM for CCn1ncc2c1CCC(Nc1nc3c(-c4ccccc4C)cccn3n1)C2 (centres unmarked) [Example 56] .
< 40%

Try this compound too: CCn1ncc2c1CCC(Nc1nc3c(-c4cccnc4OC)cccn3n1)C2 (centres unmarked) [Example 69]
< 40%

Try this compound too: CC1(C)C(=O)Nc2ccc(Nc3nc4c(-c5cccc(F)c5)cccn4n3)cc21 [Cpd. 263 in WO09155551, reference compound]
> 80%

Try this compound too: CCn1ncc2c1CCC(Nc1nc3c(-c4cncc(OC)c4)cccn3n1)C2 (centres unmarked) [Example 70]
< 40%

Try this compound too: CCn1ncc2c1CCC(Nc1nc3c(-c4cncc(Cl)c4)cccn3n1)C2 (centres unmarked) [Example 73]
40 to 80%

Try this compound too: CCn1ncc2c1C(C)CC(Nc1nc3c(-c4cc(F)c(F)c(F)c4)cccn3n1)C2 (centres unmarked) [Example 49]
< 40%

Try this compound too: Cc1cc(F)ccc1-c1cccn2nc(Nc3ccc4c(cnn4C)c3)nc12 [Example 9]
< 40%

Try this compound too: CCCn1ncc2c1CCC(Nc1nc3c(-c4ccc(F)cc4C)cccn3n1)C2 (centres unmarked) [Example 43]
< 40%

----------
# SUBJECT OF TEST: UniProtKB P16234
# Sequence (P16234 24-1089): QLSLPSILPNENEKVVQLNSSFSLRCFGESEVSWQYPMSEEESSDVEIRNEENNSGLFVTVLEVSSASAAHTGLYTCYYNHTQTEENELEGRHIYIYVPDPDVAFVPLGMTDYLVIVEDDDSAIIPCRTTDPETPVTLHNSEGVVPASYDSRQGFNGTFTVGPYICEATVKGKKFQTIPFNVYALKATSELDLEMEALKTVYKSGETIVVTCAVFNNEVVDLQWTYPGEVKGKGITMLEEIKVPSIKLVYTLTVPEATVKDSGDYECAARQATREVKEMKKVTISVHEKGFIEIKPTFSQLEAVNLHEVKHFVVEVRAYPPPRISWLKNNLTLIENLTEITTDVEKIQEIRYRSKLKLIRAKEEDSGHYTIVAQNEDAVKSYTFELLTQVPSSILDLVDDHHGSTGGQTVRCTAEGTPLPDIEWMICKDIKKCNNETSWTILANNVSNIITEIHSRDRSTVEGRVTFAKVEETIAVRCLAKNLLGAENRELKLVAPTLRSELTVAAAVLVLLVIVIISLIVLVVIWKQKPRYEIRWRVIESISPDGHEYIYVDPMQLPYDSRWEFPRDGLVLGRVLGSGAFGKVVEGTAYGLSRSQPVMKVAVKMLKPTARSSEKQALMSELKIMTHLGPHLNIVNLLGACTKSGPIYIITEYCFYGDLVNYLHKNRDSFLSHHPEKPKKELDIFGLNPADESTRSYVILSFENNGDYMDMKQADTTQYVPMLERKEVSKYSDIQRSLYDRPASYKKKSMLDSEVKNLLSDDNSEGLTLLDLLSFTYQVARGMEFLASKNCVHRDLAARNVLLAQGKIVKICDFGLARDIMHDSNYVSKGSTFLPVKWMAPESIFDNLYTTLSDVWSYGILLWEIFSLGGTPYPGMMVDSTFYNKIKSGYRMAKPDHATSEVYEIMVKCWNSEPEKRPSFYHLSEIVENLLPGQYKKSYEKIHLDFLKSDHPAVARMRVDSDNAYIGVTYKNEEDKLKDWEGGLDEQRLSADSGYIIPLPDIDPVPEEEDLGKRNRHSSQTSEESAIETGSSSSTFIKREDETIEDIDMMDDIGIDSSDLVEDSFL
# METHOD SUMMARY: Z'-LYTE SelectScreen biochemical kinase assay PDGFRA (PDGFR alpha)
# CONDITION PARAMETERS: read-out: % Inhibition mean PDGFRA (PDGFR alpha)
Threshold check on inhibition at 10 µM: at or above 20% gives criterion met, strictly below gives criterion not met.

Entry CCn1ncc2c1CCC(Nc1nc3c(-c4ccc(OC)nc4)cccn3n1)C2 (stereo not drawn) : is its inhibition at 10 µM no less than 20%?
criterion met

Try this compound too: CCn1ncc2c1CCC(Nc1nc3c(-c4ccccc4C)cccn3n1)C2 (stereo not drawn)
criterion met

Try this compound too: CCn1nnc2c1CCC(Nc1nc3c(-c4ccc(F)cc4C)cccn3n1)C2 (stereo not drawn)
criterion not met

Try this compound too: CCn1nc(Cl)c2c1CCC(Nc1nc3c(-c4ccc(F)cc4C)cccn3n1)C2 (stereo not drawn)
criterion not met

Try this compound too: CCn1ncc2c1CCC(Nc1nc3c(-c4ccc(F)cc4C)cccn3n1)C2 (stereo not drawn)
criterion not met

Try this compound too: Cc1cc(F)ccc1-c1cccn2nc(NC3CCc4c(cnn4C(C)C)C3)nc12 (stereo not drawn)
criterion not met

Try this compound too: CCn1ncc2c1CCC(Nc1nc3c(-c4cnccc4OC)cccn3n1)C2 (stereo not drawn)
criterion met

Try this compound too: `CCn1ncc2c1CC[C@@H](Nc1nc3c(-c4ccc(F)c(Cl)c4)cccn3n1)C2`
criterion not met

Try this compound too: CCCCCn1ncc2c1CCC(Nc1nc3c(-c4ccc(F)cc4C)cccn3n1)C2 (stereo not drawn)
criterion not met

Try this compound too: `CCn1ncc2c1CC[C@H](Nc1nc3c(-c4ccc(F)c(Cl)c4)cccn3n1)C2`
criterion not met

Try this compound too: CCCn1ncc2c1CCC(Nc1nc3c(-c4ccc(F)cc4C)cccn3n1)C2 (stereo not drawn)
criterion not met

Try this compound too: `CCn1ncc2c1CC[C@@H](Nc1nc3c(-c4ccc(F)cc4C)cccn3n1)C2`
criterion not met

Try this compound too: CCn1ncc2c1CCC(Nc1nc3c(-c4cncc(Cl)c4)cccn3n1)C2 (stereo not drawn)
criterion met

Try this compound too: CCn1ncc2c1C(C)CC(Nc1nc3c(-c4cc(F)c(F)c(F)c4)cccn3n1)C2 (stereo not drawn)
criterion met

Try this compound too: CCn1ncc2c1CCC(Nc1nc3c(-c4ccccc4)cccn3n1)C2 (stereo not drawn)
criterion met

Try this compound too: CCn1ncc2c1CCC(Nc1nc3c(-c4cccnc4OC)cccn3n1)C2 (stereo not drawn)
criterion not met

Try this compound too: CCn1ncc2c1CCC(Nc1nc3c(-c4cccc(Cl)c4)cccn3n1)C2 (stereo not drawn)
criterion not met

Try this compound too: `Cc1cc(F)ccc1-c1cccn2nc(Nc3ccc4c(cnn4C)c3)nc12`
criterion met

Try this compound too: Cc1cc(F)ccc1-c1cccn2nc(NC3CCc4c(cnn4CC(C)C)C3)nc12 (stereo not drawn)
criterion met

Try this compound too: CCc1nn(C)c2c1CCC(Nc1nc3c(-c4ccc(F)cc4C)cccn3n1)C2 (stereo not drawn)
criterion met

Try this compound too: CCn1ncc2c1CCC(Nc1nc3c(-c4cncc(OC)c4)cccn3n1)C2 (stereo not drawn)
criterion not met

Try this compound too: CCn1ncc2c1CCC(Nc1nc3c(-c4ccc(F)cc4)cccn3n1)C2 (stereo not drawn)
criterion not met

Try this compound too: Cc1cc(F)ccc1-c1cccn2nc(NC3CCc4c(cnn4C)C3)nc12 (stereo not drawn)
criterion not met

Try this compound too: Cc1cc(F)ccc1-c1cccn2nc(NC3CCc4cnn(C)c4C3)nc12 (stereo not drawn)
criterion not met

Try this compound too: CCCCn1ncc2c1CCC(Nc1nc3c(-c4ccc(F)cc4C)cccn3n1)C2 (stereo not drawn)
criterion met
